Source listed as PubChem BioAssay (NCI).

Test system: UACC-257 melanoma
Assay: NCI-60 one-dose screen, 48 h (100 = growth as untreated, 0 = no growth, -100 = all killed)
Details: 10 µM unless noted
This is part of a sample that, as a whole, favours compounds with a hit. Of some 83,000 tested, about 20% had one in any assay. Activity calls are given as the source filed them. How the source made its calls: active means growth percent below 10; inactive means the rest.
measurementLabel: growth

Completed entries (count: 5):
Prompt: Fill in growth for record C[Se]C(=O)c1ccccc1OC(C)=O
Completion: 49.1% (inactive)

Prompt: // Input: C=CCn1cc(C=C2C(=O)N(C)C(=O)N(C)C2=O)c2ccccc21 . Output its growth only.
Completion: 94.4% (inactive)

Prompt: Output measured growth for this item: OCCNC(Cc1ccccc1)c1ccc2c(c1)OCO2 (centres undefined)
Completion: 90.1% (inactive)

Prompt: In one line, give reported growth of the entry CC12CC=CCC1CCC1C2CCC2(C)C(c3ccc(=O)oc3)CCC12O (centres undefined) .
Completion: -52.8% (active)

Prompt: Return value of growth for input COc1cc2c(c(OC)c1OC)-c1ccc([O-])c(=O)cc1[C@@H](NC(C)=O)CC2.COc1cc2c(c(OC)c1OC)-c1ccc([O-])c(=O)cc1[C@@H](NC(C)=O)CC2.[Cu+2] , no commentary.
Completion: 45.1% (inactive)

Next:
Prompt: Please report growth for the following molecule: O=[N+]([O-])c1cc([N+](=O)[O-])c(Nn2c3ccccc3c3ccccc32)c([N+](=O)[O-])c1
Completion: -22.6% (active)

Prompt: Could you please provide reported growth for COC(=O)[C@@]1(O)C[C@H]2O[C@]1(C)n1c3ccccc3c3c4c(c5c6ccccc6n2c5c31)C(=O)NC4 ? Thanks!
Completion: -47.2% (active)

Prompt: Look up growth of CCc1ccccc1[C@@H]1C[C@]2(C)CCO[C@@H]2OO1 and report it.
Completion: 96.7% (inactive)

Prompt: Give the reported growth for this molecule. ClC1=C(Cl)C(Cl)(C2(Cl)C(Cl)=C(Cl)C(Cl)=C2Cl)C(Cl)=C1Cl
Completion: -60.4% (active)
